systemTested: T1, HLA-A*02:01 (human)
T1 construct: monomers captured on streptavidin plates; also called MHC class I
protocolNotes: UV peptide exchange ELISA
recordedMetric: peptide exchange yield

Answered cases to consult:
• VLADIELAQA = 50 to 75%
• SLVEVNPAYSV = 50 to 75%

Exam item: Given "KVLNELYTV" , state its recorded peptide exchange yield.
Marked response: 50 to 75%

Exam item: Given "GLSDGNPSL" , state its recorded peptide exchange yield.
Marked response: 20 to 50%

Exam item: Given "FLLEPGNLEV" , state its recorded peptide exchange yield.
Marked response: ≥ 75%

Exam item: Given KLVDRTWTL (probably a misprint of W as VV) , state its recorded peptide exchange yield.
Marked response: 50 to 75%

Exam item: Given "FLLQQHLISA" , state its recorded peptide exchange yield.
Marked response: 20 to 50%

Exam item: Given "YLFEPLYHV" , state its recorded peptide exchange yield.
Marked response: 50 to 75%

Exam item: Given "YQQAQVPSV" , state its recorded peptide exchange yield.
Marked response: 50 to 75%

Exam item: Given "SLWPDPMEV" , state its recorded peptide exchange yield.
Marked response: 50 to 75%

Exam item: Given "SLDSTLHAV" , state its recorded peptide exchange yield.
Marked response: 50 to 75%

Exam item: Given "KMFEFVEPLL" , state its recorded peptide exchange yield.
Marked response: ≥ 75%

Exam item: Given "YVIDQGETDVYV" , state its recorded peptide exchange yield.
Marked response: 50 to 75%

Exam item: Given "SIFSAFLSV" , state its recorded peptide exchange yield.
Marked response: 50 to 75%

Exam item: Given "LLPPLESLATV" , state its recorded peptide exchange yield.
Marked response: 20 to 50%

Exam item: Given "FIFSEKPVFV" , state its recorded peptide exchange yield.
Marked response: 50 to 75%
